assay: Aqueous solubility of the compound in pH 7.0 phosphate buffer at 2 mg incubated for 72 hrs by shake flask method; format: physicochemical
Mark label 0 for solubility thermodynamic at 72 h values under 3 µg/mL, and label 1 for everything at or above.

mol_smiles=CSc1cc(C(=O)c2ccc3c(c2)c(C=O)cn3C)cc(SC)n1 class="label 1"
mol_smiles=C=C(c1cc(Cl)nc(SC)c1)c1ccc2c(c1)c(C#N)cn2C class="label 1"
mol_smiles=COc1ccc(C(=NO)c2cc(Cl)nc(SC)c2)cc1 class="label 1"
mol_smiles=CSc1cc(C(=O)c2ccc(N(C)C)cc2)cc(SC)n1 class="label 0"
mol_smiles=C=C(c1cccc(N(C)C)c1)c1cc(SC)nc(SC)c1 class="label 0"
mol_smiles=C=C(c1ccc(N(C)C)cc1)c1cc(SC)nc(SC)c1 class="label 1"
